# Test system: HL-60
# procedure text: NCI tumour cell line growth inhibition, 48 h
Active and inactive are the calls of the source. Cut-off read from the data, not from the text of the source: active = GI50 up to about 1.1 µM and inactive = higher.
Overview of recorded GI50 for various compounds

For orientation, consider the following solved cases.
| compound | test value |
| --- | --- |
| CC(C)(C)CC(C)(C)N/C(N)=N/O | > 55.7 µM (inactive) |
| C=CC(C)(C)[C@@]12CC3C(=O)N[C@@H](Cc4ccccc4)C(=O)N3[C@@H]1N(C(C)=O)c1ccccc12 (some centres not stated) | 30.3 µM (inactive) |
| CCOC(=O)c1nc2cc(C(F)(F)F)ccc2nc1Nc1cc(OC)c(OC)c(OC)c1 | > 100 µM (inactive) |
| O=c1oc2c(Cl)cc(Cl)cc2cc1-c1cn2c(n1)sc1ccccc12 | 23.9 µM (inactive) |
| Cc1cc(NS(=O)(=O)c2ccc(NC(=O)c3cccc4c(Nc5ccc(S(=O)(=O)N=C(N)N)cc5)c5ccccc5nc34)cc2)no1 | > 100 µM (inactive) |
| CCC(=O)N(c1ccccc1)C(C)CN1CCC(O)(c2ccccc2)CC1 (configuration not stated) | > 100 µM (inactive) |
| FC(F)(F)c1ccccc1/C=N/C12CC3CC(CC(C3)C1)C2 | > 100 µM (inactive) |
| CN(C)c1nc(N)c(C#N)c(C#N)c1C#N | 2.21 µM (inactive) |

Answer with the recorded GI50 for the compound listed here: CCOP(=O)(CCC(O)CNc1nc(N)nc(Cl)c1/N=N/c1ccc(Cl)cc1)OCC (configuration not stated)
3.5 µM (inactive)

Answer with the recorded GI50 for the compound listed here: CC(C)C1=CC23CCC4C(C)(C(=O)O)CCCC4(C)C2CC1C1C(=O)N(c2ccccc2)C(=O)C13 (configuration not stated)
95.9 µM (inactive)

Answer with the recorded GI50 for the compound listed here: CC(=O)OCC1OC(n2c(=S)n(-c3ccccc3)c(=O)c3cc(Br)cc(Br)c32)C(OC(C)=O)C(OC(C)=O)C1OC(C)=O (configuration not stated)
86.7 µM (inactive)

====

# Test system: NCI-H226
# procedure text: NCI tumour cell line growth inhibition, 48 h
The source made the active and inactive calls. Rule as the data show it: active = GI50 up to about 1.1 µM and inactive = higher.
Overview of recorded GI50 for various compounds

For orientation, consider the following solved cases.
| compound | GI50 |
| --- | --- |
| O=[N+]([O-])/C(C(Cl)=C(Cl)Cl)=C(/Sc1ccccc1)N1CCOCC1 | 11.4 µM (inactive) |
| Cc1cc(S(=O)(=O)O)c(NC(=O)C(=O)C2C=CCS2(=O)=O)cc1Cl (stereo not given) | > 100 µM (inactive) |

Answer with the recorded GI50 for the compound listed here: CCN(CC)CCC(=O)c1ccc(Oc2ccc(C)cc2)cc1
35.2 µM (inactive)

Answer with the recorded GI50 for the compound listed here: O=C1C(=O)N(c2nccs2)C(=O)C(=O)C1c1nc2ccccc2s1
> 100 µM (inactive)

Answer with the recorded GI50 for the compound listed here: CSc1nc(NC2OCC(OC(C)=O)C(OC(C)=O)C2OC(C)=O)c(/N=C\C=N\c2c(NC3OCC(OC(C)=O)C(OC(C)=O)C3OC(C)=O)nc(SC)[nH]c2=O)c(=O)[nH]1 (stereo not given)
> 52.8 µM (inactive)

Answer with the recorded GI50 for the compound listed here: CC(CCC(=O)O)[C@H]1CCC2[C@H]3C(CC(=O)[C@@]21C)[C@@]1(C)CCC(O)C[C@H]1C[C@@H]3O (stereo not given in full)
> 100 µM (inactive)

Answer with the recorded GI50 for the compound listed here: COc1cc2c(cc1OCCCN1CCN(C)CC1)N=C[C@@H]1CCCN1C2=O
1.93 µM (inactive)

Answer with the recorded GI50 for the compound listed here: O=C(Oc1ccccc1)N1c2ccccc2[C@@]23O[C@]24CCC[C@H]3C#C/C=C\C#C[C@H]14
17.4 µM (inactive)

Answer with the recorded GI50 for the compound listed here: O=C(CSc1nnc(-c2ccc(/N=C\c3ccc(Cl)cc3)cc2)o1)Nc1cccc([N+](=O)[O-])c1
> 100 µM (inactive)

These measurements were taken from ChEMBL document CHEMBL1201862.
